test system: Proteinkinase C (PKC); test: Inhibition of PS/DO-mediated protein kinase C activity (32P incorporation into histone H-1); format: biochemical, Hühner; conditions: konz. 1x10^-6 mol/l
Recorded metric: Inhibierung der PS/ DO-vermittelten PKC-Aktivität (%)

Sample records with Inhibierung der PS/ DO-vermittelten PKC-Aktivität (%):
Task: Please look up its Inhibierung der PS/ DO-vermittelten PKC-Aktivität (%): CCCCCCCCCCCCCCCCCCSCC(N)CO (racemic) [Beispiel 5, (±)-2-Amino-3-octadecylthio-1-propanol]
Result: 12

Task: Next up: CCCCCCCCCCCCCCCCCCOCC(N)CO (racemic) [Beispiel 6, (±)-2-Amino-3-octadecyloxy-1-propanol, reference compound]
Result: 11

Task: Same for CCCCCCCCCCCCCCCCCCOCC(CO)NCC (racemic)
Result: 23

a = CCCCCCCCCCCCCCCCCCOCC(COC(=O)c1ccccc1)[N+](C)(C)C (racemic)
b = CCCCCCCCCCCCCCCCCCOCC(CO)N(CC)CC.O=C(O)C(=O)O (racemic)
Task: Which shows the larger Inhibierung der PS/ DO-vermittelten PKC-Aktivität (%) value: a or b ? Lab note: record the label of whichever item you select.
Result: a

---

test system: Proteinkinase C (PKC); assay: Inhibition of PS/DO-mediated protein kinase C activity (32P incorporation into histone H-1); type: biochemical, Hühner; conditions: konz. 1x10^-5 mol/l; 10 µM
Recorded metric: Inhibierung der PS/ DO-vermittelten PKC-Aktivität (%)

Reference set (6 entries):
Task: Provide the documented Inhibierung der PS/ DO-vermittelten PKC-Aktivität (%) with Proteinkinase C (PKC) as the system for CCCCCCCCCCCCCCCCCCOCC(CO)NCC (racemic)
Result: 91

Task: Entry CCCCCCCCCCCCCCCCCCOCC(COC(C)=O)N(C)C (racemic) please
Result: 28

Task: Thanks! And CCCCCCCCCCCCCCCCOCC(COC(C)=O)N(C)C (racemic) ?
Result: 23

Task: What about CCCCCCCCCCCCCCCCCCSCC(N)CO (racemic) [Beispiel 5, (±)-2-Amino-3-octadecylthio-1-propanol] ?
Result: 39

Task: Same thing, different compound: CCCCCCCCCCCCCCCCCCOCC(N)CO (racemic) [Beispiel 6, (±)-2-Amino-3-octadecyloxy-1-propanol, reference compound]
Result: 69

Task: Moving on to CCCCCCCCCCCCCCCCCCOCC(CO)N(CC)CC.O=C(O)C(=O)O (racemic)
Result: 78

a = CCCCCCCCCCCCCCCCCCOCC(COC(=O)c1ccccc1)[N+](C)(C)C (racemic)
b = CCCCCCCCCCCCCCOCC(COC(C)=O)N(C)C (racemic)
Task: Which has the higher Inhibierung der PS/ DO-vermittelten PKC-Aktivität (%), a or b ? Answer by stating the label of the chosen item.
Result: a
(a: 90%, b: 36%)
